# measurement-notes: alamarBlue cytotoxicity assay
# Format: cell-based
# experimental-context: mouse; J774A.1, 24 h, mean ± SD; read-out: Murine macrophages CC50
Catalogue of CC50 at 24 h values

molecule: CC(CCC(=O)C1(C)CCC(C(C)(C)O)O1)C1CCC2OC(C3(C)CCC(Br)C(C)(C)O3)CCC2(C)O1 (centres unmarked)
endpoint-label: CC50 at 24 h
result: > 85 µM

Switching to the query record.
// C=C(CCC(=O)C1(C)CCC(C(C)(C)O)O1)C1CCC2OC(C3(C)CCC(Br)C(C)(C)O3)CCC2(C)O1 (centres unmarked) [18-KetoDT (6), 18-ketodehydrothyrsiferol] : CC50 at 24 h value = 40 µM
